# Tested on: U251 CNS
# Measurement Protocol: NCI-60 one-dose screen, 48 h
# Experimental Parameters: 10 µM unless noted
The panel holds about 83,000 compounds, 20% with a hit somewhere; the sample as a whole holds those more often. Activity calls are given as the source filed them. Rule for the calls: active = growth percent below 10; inactive = the rest.
Pick from active, inactive when you respond.

Problem: What is the recorded call for this compound in the test? "COCCNc1ccc2ncc(C#Cc3cncc(C(=O)Nc4ccc(CN5CCN(C)CC5)c(C(F)(F)F)c4)c3)n2n1"
Solution: active

Problem: How did this test come out for "CCn1c(SCC(=O)Nc2cccc(C(=O)/C=C/c3ccc(Br)cc3)c2)nc2ccccc2c1=O" ?
Solution: inactive

Further cases:
Problem: Record request — test call for "NC(N)=Nc1ccc(Nc2cccc(Oc3ccc(Cl)c(C(F)(F)F)c3)c2)cn1"
Solution: active

====

# Test system: HOP-62 NSCLC
# Measurement Protocol: NCI-60 one-dose screen, 48 h
# Experimental Parameters: 10 µM unless noted
About 83,000 compounds went through this panel and 20% of them were active in at least one assay; those are over-represented in the sample as a whole. Calls of active or inactive are those of the source. Rule for the calls: active = growth percent below 10; inactive = the rest.
One label from this list, please: 1 for active, 0 for inactive

Problem: Recorded test call requested for CC(=O)C1=C(C)NC(NN)=NC1c1cccc(Cl)c1 (centres undefined)
Solution: 0

Problem: Dear all, I need the recorded test outcome for "O=C1Nc2ccccc2/C1=C/c1ccc(CO)n1-c1ccc(Cl)cc1" , thank you.
Solution: 0

Problem: Please indicate how the test categorized "Nc1nc(-c2cccc([N+](=O)[O-])c2)c(N=Nc2ccc([N+](=O)[O-])cc2Cl)s1" .
Solution: 0

Problem: Entry "O=S(=O)(NCCNc1nccc(-n2cnc3ccccc32)n1)c1ccc(C(F)(F)F)cc1" : call = ?
Solution: 0

Further cases:
Problem: Hi team, can someone confirm the assay call for "N#Cc1cn(Cc2ccc(Cl)cc2Cl)c(C(=O)c2ccc(Br)cc2)c1N" ?
Solution: 0

Problem: Recorded test outcome, item "Cn1ccnc1C(=O)/C=C/c1ccc(CNC(=O)c2ccc(S(F)(F)(F)(F)F)cc2)cc1"
Solution: 0

Problem: Hi team, can someone confirm the assay call for CC(C)(C)c1ccc(C(=O)Nc2sc3c(c2C(N)=O)CCC(O)C3)cc1 (centres undefined) ?
Solution: 0

Problem: GET /call?item= "O=S(=O)(NCCCNc1nccc(-c2[nH]c(-c3ccccc3)nc2-c2ccc(Cl)c(O)c2)n1)c1cccc2ccccc12" returns the recorded outcome of this test.
Solution: 0

Problem: Recorded test call requested for CCCn1cnc2c(c1=N)C(c1ccc(OC)cc1)c1sc3c(CC)cccc3c1O2 (centres undefined)
Solution: 0

Problem: Record lookup: outcome of this test for "COc1ccc(-n2c(/C=C3\C(=O)Nc4ccccc43)ccc2CO)cc1" ?
Solution: 0

Problem: For this molecule, state the assay outcome: "O=C(CCn1cc[n+](CC(=O)c2ccc(-c3ccccc3)cc2)c1)Nc1cccc2cccnc12"
Solution: 0

Problem: Returns: the outcome recorded for "O=C(CN1CCN(c2cc(=O)n(-c3ccccc3)c3ccccc23)CC1)Nc1nc(-c2ccccc2)cs1" in this assay.
Solution: 0

Problem: Just curious, what result did "CC1=N[C@@H]2CN(C(=O)OC(C)(C)C)C[C@@H]2n2c1cc1ccccc1c2=O" get here?
Solution: 0

Problem: Recorded test call requested for "C#C[C@]1(O)CC[C@H]2[C@@H]3CC=C4c5sc(-c6ccc(C)cc6)nc5CC[C@]4(C)[C@H]3CC[C@@]21C"
Solution: 0

Problem: Could you kindly confirm the outcome this assay logged for CCc1cccc2c3c(sc12)C(c1ccc(Cl)cc1)C(C#N)=C(/N=C/c1ccc(Cl)cc1)O3 (centres undefined) ?
Solution: 0

Problem: What was the test verdict on "Cc1ccc(-c2nn(-c3ccccc3)cc2/C=C/C(=O)c2ccc(NC(=O)CCCCCCC(=O)NO)cc2)cc1" ?
Solution: 0

Problem: Which result was noted for this molecule in the test: "CCOC(=O)c1c(NC(=O)c2ccccc2C(F)(F)F)sc2c1CCC(=O)C2"
Solution: 0

Problem: For "COc1cccc(/C=C(/C)c2ccc3cccc(OC)c3[o+]2)c1O" , what call appears in the results of this test?
Solution: 0

Problem: Identify the outcome logged in this assay for the molecule shown: "COc1ccccc1NC1=C(Cl)C(=O)c2nc(C)ccc2C1=O"
Solution: 0

Problem: Which result was noted for this molecule in the test: "O=C(CCC(=O)N1CCOCC1)OCCCCCCSc1ccc([N+](=O)[O-])c2nonc12"
Solution: 0
